These measurements were taken from patent US9828352B2.

# system-tested: human-D3R (Homo sapiens)
# Construct: expressed in transfected cells; host or cells: CHO cell line stably transfected with human D3R
# Sequence (P35462 whole entry): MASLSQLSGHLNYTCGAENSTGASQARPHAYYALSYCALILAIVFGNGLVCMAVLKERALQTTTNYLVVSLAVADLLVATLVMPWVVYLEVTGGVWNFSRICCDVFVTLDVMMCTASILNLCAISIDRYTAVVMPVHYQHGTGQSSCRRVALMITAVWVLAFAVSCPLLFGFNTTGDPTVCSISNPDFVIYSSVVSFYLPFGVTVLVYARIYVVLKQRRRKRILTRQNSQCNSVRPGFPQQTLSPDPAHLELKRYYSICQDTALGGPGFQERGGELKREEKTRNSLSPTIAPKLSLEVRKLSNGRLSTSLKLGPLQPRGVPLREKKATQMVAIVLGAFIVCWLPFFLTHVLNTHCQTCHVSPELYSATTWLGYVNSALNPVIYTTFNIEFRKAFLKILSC
# assay-method-text: D3 Dopamine Receptor (D3dR) cellular assay, cAMP HTRF functional assay in human-D3R expressing CHO cells
# Format: cell-based
# recorded-conditions: CHO, 0.5 h; % of 300 nM Dopamine response; read-out: Dopamine D3 % of Agonist Activity
Where a name gives a salt, the structure may show the parent alone.
Mark 1 only when Emax stays strictly below 70%. Values equal to the cut-off are -1.

compound	answer-label
COc1ccccc1N1CCN(CCCCNC(=O)Oc2ccc3c(c2)[nH]c2ccccc23)CC1	1
NC(=O)c1cccc(-c2cccc(OC(=O)NCCCCN3CCC(c4ccccc4)CC3)c2)c1 [Example 14, hydrochloride]	-1
Cc1ccccc1N1CCN(CCCNC(=O)Oc2cccc(N3CCOCC3)c2)CC1 [Example 13, hydrochloride]	1
COc1ccccc1N1CCN(CCCCNC(=O)Oc2ccc(C(=O)c3ccccc3)cc2)CC1 [Example 45, hydrochloride]	1
O=C(NCCCN1CCN(c2ccccc2)CC1)Oc1cccc(-c2ccccc2)c1	-1
NC(=O)c1cccc(-c2ccc(OC(=O)NCCCCN3CCN(c4ccccc4)CC3)cc2)c1	-1
O=C(NCCCCN1CCN(c2cccc(Cl)c2Cl)CC1)Oc1cccc(N2CCC(F)(F)CC2)c1 [Example 9, hydrochloride]	1
